IC50, live SARS-CoV-2 미세중화분석, Vero 세포 reference
Molecular target: SARS-CoV-2 spike protein on live SARS-CoV-2 virus (SARS-CoV-2, UniProt P0DTC2 14-1273)
Assay: cell-based or functional assay
Numbers only; they are read as nM.

SA4050 (antibody, V domains shown) VH: QVQLVESGAEVKKPGASVKVSCKASGYTFTGYFIHWVRQAPGQGLEWMGWINPNSGGTNYAQKFQGRVTMTRDTSISTAYMELSRLRSDDTAVYYCARVPHLSGYYYEGVLGYFDYWGQGTLVTVSS VL: QSALTQPASVSGSPGQSITISCTGTSIDIGSYNFVSWYQRHPGKAPRLLIYDVSDRPSGVSNRFSGSKSANTASLTISGLQAEDEADYYCSSYTSSSLWVFGGGTKLTVL : 0.71

Proceeding to the next binder to report its IC50, live SARS-CoV-2 미세중화분석, Vero 세포.
INPUT: Retrieve IC50, live SARS-CoV-2 미세중화분석, Vero 세포 measured for SA3856 (antibody, V domains shown) VH: QMQLVESGGGLIQPGGSLRLSCAASGFTVTSAYMSWVRQAPGKGLEWVSIIYGGGSTYYADSVKGRFTISRDNSKNTLYLQMNSLRAEDTAVYYCTGPYPGRYDYWGRGTLVTVSS VL: DIQMTQSPSSLSASVGDRVIITCRASQDIRTSLAWFQQRLGEAPRSLIYDASSLQNGVPSKFRGSGSGTDFTLTISSLQPEDFATYYCQQYKTVPLTFGGGTKVEIK and print it.
OUTPUT: 137
